- Assay explanation: The drug is tested on Enterobacter cancerogenus strain: ATCC35316 for biotransformation. The drug concentrations were measured before and after a 12-h incubation by liquid-chromatography-coupled mass spectrometry (LC–MS)
- Run parameters: 2 µM
Measurement name: Bacterial Biotransformation

Solved cases (6 shown):
{"Molecule": "CC(=O)O[C@]1(C(C)=O)CC[C@H]2[C@@H]3C=C(C)C4=CC(=O)CC[C@]4(C)[C@H]3CC[C@@]21C [MEGESTROL ACETATE]", "Bacterial Biotransformation": "Compound NOT metabolized"}
{"Molecule": "Cc1ccc(NC(=O)c2ccc(CN3CCN(C)CC3)cc2)cc1Nc1nccc(-c2cccnc2)n1", "Bacterial Biotransformation": "Compound NOT metabolized"}
{"Molecule": "CC(N)C12CC3CC(CC(C3)C1)C2 (stereo not given)", "Bacterial Biotransformation": "Compound NOT metabolized"}
{"Molecule": "C=CC[C@@H]1/C=C(\\C)C[C@H](C)C[C@H](OC)[C@H]2O[C@@](O)(C(=O)C(=O)N3CCCC[C@H]3C(=O)O[C@H](/C(C)=C/[C@@H]3CC[C@@H](O)[C@H](OC)C3)[C@H](C)[C@@H](O)CC1=O)[C@H](C)C[C@@H]2OC.O", "Bacterial Biotransformation": "Compound metabolized"}
{"Molecule": "CN(C)CCC=C1c2ccccc2C=Cc2ccccc21", "Bacterial Biotransformation": "Compound NOT metabolized"}
{"Molecule": "CC(C)NCC(O)c1ccc(NS(C)(=O)=O)cc1 (stereo not given)", "Bacterial Biotransformation": "Compound NOT metabolized"}

Now turn to the next molecule.
State the recorded Bacterial Biotransformation for this entry: `CCCCCOC(=O)Nc1nc(=O)n([C@@H]2O[C@H](C)[C@@H](O)[C@H]2O)cc1F`
Compound metabolized

====

- Assay explanation: The drug is tested on Eubacterium hallii strain: DSM3353 for biotransformation. The drug concentrations were measured before and after a 12-h incubation by liquid-chromatography-coupled mass spectrometry (LC–MS)
- Run parameters: anaerobutyricum hallii, 2 µM
Measurement name: Bacterial Biotransformation

Solved cases (5 shown):
{"Molecule": "O=P(O)(O)O.c1ccc(CN(CC2=NCCN2)c2ccccc2)cc1 [ANTAZOLINE PHOSPHATE]", "Bacterial Biotransformation": "Compound NOT metabolized"}
{"Molecule": "Nc1nc(N)nc(-c2cc(Cl)ccc2Cl)n1.O=C(O)/C=C\\C(=O)O [IRSOGLADINE MALEATE]", "Bacterial Biotransformation": "Compound NOT metabolized"}
{"Molecule": "CC[C@@]1(O)C(=O)OCc2c1cc1n(c2=O)Cc2cc3c(CN(C)C)c(O)ccc3nc2-1 [TOPOTECAN]", "Bacterial Biotransformation": "Compound NOT metabolized"}
{"Molecule": "CC(C)NCC(O)COc1ccc(COCCOC(C)C)cc1.CC(C)NCC(O)COc1ccc(COCCOC(C)C)cc1.O=C(O)/C=C/C(=O)O (configuration not stated) [BISOPROLOL FUMARATE]", "Bacterial Biotransformation": "Compound NOT metabolized"}
{"Molecule": "COC(=O)C1=C(C)NC(C)=C(C(=O)OC(C)C)C1c1cccc2nonc12 (configuration not stated) [ISRADIPINE]", "Bacterial Biotransformation": "Compound NOT metabolized"}

Now turn to the next molecule.
State the recorded Bacterial Biotransformation for this entry: CC(=O)OCC(=O)[C@@]1(OC(C)=O)[C@@H](C)C[C@H]2[C@@H]3C[C@H](F)C4=CC(=O)C=C[C@]4(C)[C@@]3(F)[C@@H](O)C[C@@]21C [DIFLORASONE DIACETATE]
Compound NOT metabolized
